# assayed_target: CDK2/CycE (Homo sapiens)
# run_description: CDK2/CycE kinase assay (TR-FRET, 2 mM ATP)
# condition_notes: 2 mM ATP (high ATP); median; read-out: CDK2/CyclinE, 2 mM ATP (high ATP), IC50 (median)
pIC50: −log10 of the molar value.
value_type: pIC50

a. COc1cccc2[nH]c(CNc3nc(N4CCNCC4)nc4c(C5CC5)cnn34)nc12
b. CC(C)c1cnn2c(NCc3nc4ccccc4[nH]3)nc(N3CCOC[C@@H]3C)nc12
query: Which value of pIC50 is numerically greater: that of a or that of b ? To answer, give the label that identifies your chosen option.
result: b
